# System: Streptococcus pyogenes
# Protocol: Antibacterial activity against MLSB-resistant Streptococcus pyogenes 12-206 harboring ermA gene assessed as reduction in microbial growth
# Format: functional
Quantity: MIC
The number alone won't do; follow it with the unit.

Exercise: Would you mind telling me what MIC value was observed for CC[C@H]1OC(=O)[C@H](C)[C@@H](OC(=O)Cc2ccccn2)[C@H](C)[C@@H](O[C@@H]2O[C@H](C)C[C@H](N(C)C)[C@H]2O)[C@](C)(OC(=O)CCN2CCN(c3cc4c(cc3F)c(=O)c(C(N)=O)cn4C3CC3)CC2)C[C@@H](C)CN(C)[C@H](C)[C@@H](O)[C@]1(C)O ?
Solution: 16 µg/mL

Exercise: Would you mind telling me what MIC value was observed for CC[C@H]1OC(=O)[C@H](C)[C@@H](OC(=O)Cc2ccccn2)[C@H](C)[C@@H](O[C@@H]2O[C@H](C)C[C@H](N(C)C)[C@H]2O)[C@](C)(OC(=O)CCNCCC#Cc2cncc(C(N)=O)c2)C[C@@H](C)CN(C)[C@H](C)[C@@H](O)[C@]1(C)O ?
Solution: 4 µg/mL

Exercise: Would you mind telling me what MIC value was observed for CC[C@H]1OC(=O)[C@H](C)[C@@H](OC(=O)Cc2ccccn2)[C@H](C)[C@@H](O[C@@H]2O[C@H](C)C[C@H](N(C)C)[C@H]2O)[C@](C)(OC(=O)CCNCCC#Cc2ccc3[nH]ccc(=O)c3c2)C[C@@H](C)CN(C)[C@H](C)[C@@H](O)[C@]1(C)O ?
Solution: 2 µg/mL

Exercise: Would you mind telling me what MIC value was observed for CC[C@H]1OC(=O)[C@H](C)[C@@H](OC(=O)Cc2ccccn2)[C@H](C)[C@@H](O[C@@H]2O[C@H](C)C[C@H](N(C)C)[C@H]2O)[C@](C)(OC(=O)CCN2CCN(c3cc4c(cc3F)c(=O)c(C(N)=O)cn4CC)CC2)C[C@@H](C)CN(C)[C@H](C)[C@@H](O)[C@]1(C)O ?
Solution: 16 µg/mL

====

# Tested on: Streptococcus pneumoniae
# Protocol: Antibacterial activity against MLSB-resistant Streptococcus pneumoniae 07P390 harboring ermB gene assessed as reduction in microbial growth
# Format: functional
Quantity: MIC (µg/mL)
Output spec: scalar in µg/mL, unitless text.

Exercise: Would you mind telling me what MIC value was observed for CC[C@H]1OC(=O)[C@H](C)[C@@H](OC(=O)Cc2ccccn2)[C@H](C)[C@@H](O[C@@H]2O[C@H](C)C[C@H](N(C)C)[C@H]2O)[C@](C)(OC(=O)CCNC/C=C/c2cnc3ccccc3c2)C[C@@H](C)CN(C)[C@H](C)[C@@H](O)[C@]1(C)O ?
Solution: 1

Exercise: Would you mind telling me what MIC value was observed for CC[C@H]1OC(=O)[C@H](C)[C@@H](OC(=O)Cc2ccccn2)[C@H](C)[C@@H](O[C@@H]2O[C@H](C)C[C@H](N(C)C)[C@H]2O)[C@](C)(OC(=O)CCNCCC#Cc2ccc3c(c2)c(=O)c(C(N)=O)cn3C2CC2)C[C@@H](C)CN(C)[C@H](C)[C@@H](O)[C@]1(C)O ?
Solution: 256

Exercise: Would you mind telling me what MIC value was observed for CC[C@H]1OC(=O)[C@H](C)[C@@H](OC(=O)Cc2ccccn2)[C@H](C)[C@@H](O[C@@H]2O[C@H](C)C[C@H](N(C)C)[C@H]2O)[C@](C)(OC(=O)CCNCC/C=C/c2cnc3ccccc3c2)C[C@@H](C)CN(C)[C@H](C)[C@@H](O)[C@]1(C)O ?
Solution: 4

Exercise: Would you mind telling me what MIC value was observed for CC[C@H]1OC(=O)[C@H](C)[C@@H](OC(=O)Cc2ccccn2)[C@H](C)[C@@H](O[C@@H]2O[C@H](C)C[C@H](N(C)C)[C@H]2O)[C@](C)(OC(=O)CCNCCCNc2cc3c(=O)c(C(=O)O)cn(C4CC4)c3cc2Cl)C[C@@H](C)CN(C)[C@H](C)[C@@H](O)[C@]1(C)O ?
Solution: 1

Exercise: Would you mind telling me what MIC value was observed for CC[C@H]1OC(=O)[C@H](C)[C@@H](OC(=O)Cc2ccccn2)[C@H](C)[C@@H](O[C@@H]2O[C@H](C)C[C@H](N(C)C)[C@H]2O)[C@](C)(OC(=O)CCNCCNc2cc3c(=O)c(C(=O)O)cn(C4CC4)c3cc2Cl)C[C@@H](C)CN(C)[C@H](C)[C@@H](O)[C@]1(C)O ?
Solution: 1

Exercise: Would you mind telling me what MIC value was observed for CC[C@H]1OC(=O)[C@H](C)[C@@H](OC(=O)Cc2ccccn2)[C@H](C)[C@@H](O[C@@H]2O[C@H](C)C[C@H](N(C)C)[C@H]2O)[C@](C)(OC(=O)CCNCCC#Cc2ccc3c(c2)c(=O)c(C(=O)O)cn3C2CC2)C[C@@H](C)CN(C)[C@H](C)[C@H]2OC(=O)O[C@@]21C ?
Solution: 64

Exercise: Would you mind telling me what MIC value was observed for CC[C@H]1OC(=O)[C@H](C)[C@@H](OC(=O)Cc2ccccn2)[C@H](C)[C@@H](O[C@@H]2O[C@H](C)C[C@H](N(C)C)[C@H]2O)[C@](C)(OC(=O)CCNCCC#Cc2ccc3c(c2)c(=O)c(C(=O)O)cn3C2CC2)C[C@@H](C)CN(C)[C@H](C)[C@@H](O)[C@]1(C)O ?
Solution: 64

Origin of the recorded values: ChEMBL document CHEMBL4680236
